targetEntity: Human immunodeficiency virus type 1 reverse transcriptase (Human immunodeficiency virus 1, UniProt Q72547)
measurementName: IC50 (µM)

>>> endpointresult("Cc1cc(Oc2c(C(F)(F)F)ccn(Cc3n[nH]c(=O)n3C)c2=O)ccc1-c1ccc(F)c(C#N)c1")
1.46
>>> endpointresult("Cn1c(Cn2ccc(C(F)(F)F)c(Oc3ccc(-c4cccc(F)c4)c(F)c3)c2=O)n[nH]c1=O")
2.33
>>> endpointresult("Cc1cc(-c2cc(F)cc(C#N)c2)ccc1Oc1c(C(F)(F)F)ccn(Cc2n[nH]c(=O)n2C)c1=O")
5.34
>>> endpointresult("Cn1c(Cn2ccc(C(F)(F)F)c(Oc3cc(C#N)cc(-c4cccc(F)c4)c3)c2=O)n[nH]c1=O")
0.056
>>> endpointresult("Cc1ccccc1-c1ccc(Oc2c(C(F)(F)F)ccn(Cc3n[nH]c(=O)n3C)c2=O)cc1F")
3.21
>>> endpointresult("Cn1c(Cn2ccc(C(F)(F)F)c(Oc3ccc(-c4cccc(C#N)c4)c(F)c3)c2=O)n[nH]c1=O")
0.45
>>> endpointresult("Cn1c(Cn2ccc(C(F)(F)F)c(Oc3ccc(-c4cccc(C#N)c4)cc3)c2=O)n[nH]c1=O")
14.4

----------
assayName: Half life in Sprague-Dawley rat at 5 mg/kg,po
Type: ADME, organism-based
particulars: in vivo
measurementName: half-life

>>> endpointresult("Cc1cccc(-c2cc(C#N)cc(Oc3c(C(F)(F)F)ccn(Cc4n[nH]c(=O)n4C)c3=O)c2)c1")
"8.45 h"

----------
targetEntity: Cytochrome P450 2C19 (Homo sapiens, UniProt P33261)
Sequence (P33261 whole entry): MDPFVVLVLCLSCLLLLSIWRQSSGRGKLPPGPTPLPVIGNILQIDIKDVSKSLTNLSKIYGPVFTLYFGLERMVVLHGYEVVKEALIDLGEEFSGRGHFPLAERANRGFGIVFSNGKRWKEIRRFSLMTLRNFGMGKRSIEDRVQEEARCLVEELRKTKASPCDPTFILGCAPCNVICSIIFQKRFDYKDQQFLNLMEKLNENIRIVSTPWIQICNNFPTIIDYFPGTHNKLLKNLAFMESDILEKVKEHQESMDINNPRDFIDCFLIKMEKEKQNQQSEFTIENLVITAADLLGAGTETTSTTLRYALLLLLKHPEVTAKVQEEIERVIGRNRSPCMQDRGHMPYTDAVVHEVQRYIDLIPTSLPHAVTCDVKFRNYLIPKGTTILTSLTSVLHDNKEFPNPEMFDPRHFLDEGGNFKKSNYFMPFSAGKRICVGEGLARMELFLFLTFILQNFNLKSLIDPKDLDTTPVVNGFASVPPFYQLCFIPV
measurementName: IC50

>>> endpointresult("Cc1cccc(-c2cc(C#N)cc(Oc3c(C(F)(F)F)ccn(Cc4n[nH]c(=O)n4C)c3=O)c2)c1")
"28.6 µM"

----------
targetEntity: Human immunodeficiency virus type 1 reverse transcriptase (Human immunodeficiency virus 1)
pIC50: −log10 of the molar value.
Decision: pIC50 compared against 5; not below it gives condition met, below it gives condition not met.

>>> answerlabel("COc1cc(-c2cccc(C#N)c2)ccc1Oc1c(C(F)(F)F)ccn(Cc2n[nH]c(=O)n2C)c1=O")
"condition not met"
>>> answerlabel("COc1cc(-c2cc(F)cc(C#N)c2)ccc1Oc1c(C(F)(F)F)ccn(Cc2n[nH]c(=O)n2C)c1=O")
"condition not met"
>>> answerlabel("Cn1c(Cn2ccc(C(F)(F)F)c(Oc3ccc(-c4cccc(C#N)c4)cc3F)c2=O)n[nH]c1=O")
"condition met"
>>> answerlabel("Cc1cc(-c2ccc(C#N)cc2)ccc1Oc1c(C(F)(F)F)ccn(Cc2n[nH]c(=O)n2C)c1=O")
"condition met"
>>> answerlabel("Cn1c(Cn2ccc(C(F)(F)F)c(Oc3c(F)cc(-c4ccc(C#N)cc4)cc3F)c2=O)n[nH]c1=O")
"condition met"
>>> answerlabel("Cn1c(Cn2ccc(C(F)(F)F)c(Oc3ccc(-c4cc(F)cc(C#N)c4)cc3Cl)c2=O)n[nH]c1=O")
"condition met"
>>> answerlabel("Cn1c(Cn2ccc(C(F)(F)F)c(Oc3ccc(-c4ccc(C#N)cc4)c(F)c3)c2=O)n[nH]c1=O")
"condition met"
>>> answerlabel("Cn1c(Cn2ccc(C(F)(F)F)c(Oc3cc(C#N)cc(-c4ccc(C#N)cc4)c3)c2=O)n[nH]c1=O")
"condition met"

----------
assayName: Selectivity index, ratio of CC50 for cytotoxicity against human MT4 cells to EC50 of Anti-HIV activity against HIV-1 IIIB infected in human MT4 cells
Assay type: toxicity, cell-based
particulars: read-out: Ratio CC50/EC50
molecules and their reported selectivity ratio
measurementName: selectivity ratio

>>> endpointresult("Cn1c(Cn2ccc(C(F)(F)F)c(Oc3cc(Cl)cc(C#N)c3)c2=O)n[nH]c1=O")
22600
>>> endpointresult("Cn1c(Cn2ccc(C(F)(F)F)c(Oc3ccc(-c4ccc(C#N)cc4)cc3)c2=O)n[nH]c1=O")
11.9
>>> endpointresult("Cc1cc(-c2ccc(F)c(C#N)c2)ccc1Oc1c(C(F)(F)F)ccn(Cc2n[nH]c(=O)n2C)c1=O")
13.7

----------
assayName: Cmax in Sprague-Dawley rat at 1 mg/kg,iv
Format: ADME, organism-based
Design: dose 1 mg/kg, route iv
particulars: in vivo
measurementName: Cmax (ng/mL)

>>> endpointresult("Cc1cccc(-c2cc(C#N)cc(Oc3c(C(F)(F)F)ccn(Cc4n[nH]c(=O)n4C)c3=O)c2)c1")
469

----------
assayName: MRT (0 to t) in Sprague-Dawley rat at 1 mg/kg,iv
Format: ADME, organism-based
particulars: in vivo
measurementName: MRT last (h)

>>> endpointresult("Cc1cccc(-c2cc(C#N)cc(Oc3c(C(F)(F)F)ccn(Cc4n[nH]c(=O)n4C)c3=O)c2)c1")
2.03

----------
assayName: Selectivity index, ratio of CC50 for cytotoxicity against human MT4 cells to EC50 of Anti-HIV activity against HIV-1 IIIB infected in human MT4 cells
Format: toxicity, cell-based
particulars: read-out: Ratio CC50/EC50
Define the label as Met when selectivity ratio is strictly less than 7 and as Not met in all remaining cases.

>>> answerlabel("Cc1cc(-c2ccc(F)cc2)ccc1Oc1c(C(F)(F)F)ccn(Cc2n[nH]c(=O)n2C)c1=O")
"Met"
>>> answerlabel("Cn1c(Cn2ccc(C(F)(F)F)c(Oc3ccc(-c4cc(F)cc(C#N)c4)c(F)c3)c2=O)n[nH]c1=O")
"Not met"
>>> answerlabel("Cn1c(Cn2ccc(C(F)(F)F)c(Oc3ccc(-c4ccc(F)c(C#N)c4)cc3)c2=O)n[nH]c1=O")
"Met"
>>> answerlabel("COc1cc(-c2cccc(C#N)c2)ccc1Oc1c(C(F)(F)F)ccn(Cc2n[nH]c(=O)n2C)c1=O")
"Not met"
>>> answerlabel("Cn1c(Cn2ccc(C(F)(F)F)c(Oc3ccc(-c4ccc(F)cc4)c(F)c3)c2=O)n[nH]c1=O")
"Met"
>>> answerlabel("Cc1cc(Oc2c(C(F)(F)F)ccn(Cc3n[nH]c(=O)n3C)c2=O)ccc1-c1ccc(F)cc1")
"Met"
>>> answerlabel("Cn1c(Cn2ccc(C(F)(F)F)c(Oc3c(F)cc(-c4cccc(F)c4)cc3F)c2=O)n[nH]c1=O")
"Met"
>>> answerlabel("Cn1c(Cn2ccc(C(F)(F)F)c(Oc3ccc(-c4cccc(C#N)c4)cc3)c2=O)n[nH]c1=O")
"Not met"

----------
assayName: MRT (0 to infinity) in Sprague-Dawley rat at 1 mg/kg,iv
Type: ADME, organism-based
particulars: in vivo
measurementName: MRT inf (h)

>>> endpointresult("Cc1cccc(-c2cc(C#N)cc(Oc3c(C(F)(F)F)ccn(Cc4n[nH]c(=O)n4C)c3=O)c2)c1")
2.48

----------
assayName: Selectivity index, ratio of CC50 for cytotoxicity against human MT4 cells to EC50 of Anti-HIV activity against HIV-1 IIIB infected in human MT4 cells
Assay type: toxicity, cell-based
particulars: read-out: Ratio CC50/EC50
measurementName: selectivity ratio

>>> endpointresult("Cc1ccc(-c2cc(F)c(Oc3c(C(F)(F)F)ccn(Cc4n[nH]c(=O)n4C)c3=O)c(F)c2)cc1")
"< 1"
>>> endpointresult("Cn1c(Cn2ccc(C(F)(F)F)c(Oc3ccc(-c4ccc(F)cc4)cc3Cl)c2=O)n[nH]c1=O")
"< 1"
>>> endpointresult("Cc1ccc(-c2ccc(Oc3c(C(F)(F)F)ccn(Cc4n[nH]c(=O)n4C)c3=O)cc2C)cc1")
"< 1"
>>> endpointresult("Cc1cccc(-c2ccc(Oc3c(C(F)(F)F)ccn(Cc4n[nH]c(=O)n4C)c3=O)cc2)c1")
"< 1"
>>> endpointresult("Cc1ccc(-c2cc(C#N)cc(Oc3c(C(F)(F)F)ccn(Cc4n[nH]c(=O)n4C)c3=O)c2)cc1")
"> 1150"

----------
assayName: Selectivity index, ratio of CC50 for cytotoxicity against human MT4 cells to EC50 of Anti-HIV activity against HIV-1 IIIB infected in human MT4 cells
Type: toxicity, cell-based
particulars: read-out: Ratio CC50/EC50
Item-by-item account of selectivity ratio
measurementName: selectivity ratio

>>> endpointresult("Cn1c(Cn2ccc(C(F)(F)F)c(Oc3ccc(-c4ccc(C#N)cc4)cc3Cl)c2=O)n[nH]c1=O")
3.58
>>> endpointresult("Cn1c(Cn2ccc(C(F)(F)F)c(Oc3cc(C#N)cc(-c4ccc(C#N)cc4)c3)c2=O)n[nH]c1=O")
3110

----------
# collection of log10(IC50) values tested on Human immunodeficiency virus type 1 reverse transcriptase (Human immunodeficiency virus 1)
measurementName: log10(IC50) (log10 of the value in µM)

>>> endpointresult("Cn1c(Cn2ccc(C(F)(F)F)c(Oc3ccc(-c4ccc(F)c(C#N)c4)c(F)c3)c2=O)n[nH]c1=O")
0.05
>>> endpointresult("Cn1c(Cn2ccc(C(F)(F)F)c(Oc3ccc(-c4cc(F)cc(C#N)c4)c(F)c3)c2=O)n[nH]c1=O")
0.01
>>> endpointresult("Cn1c(Cn2ccc(C(F)(F)F)c(Oc3c(F)cc(-c4cc(F)cc(C#N)c4)cc3F)c2=O)n[nH]c1=O")
0.51
>>> endpointresult("Cn1c(Cn2ccc(C(F)(F)F)c(Oc3ccc(-c4cccc(C#N)c4)c(F)c3F)c2=O)n[nH]c1=O")
0.12
>>> endpointresult("Cn1c(Cn2ccc(C(F)(F)F)c(Oc3c(F)cc(-c4ccc(F)c(C#N)c4)cc3F)c2=O)n[nH]c1=O")
0.22
>>> endpointresult("Cn1c(Cn2ccc(C(F)(F)F)c(Oc3ccc(-c4cccc(C#N)c4)cc3Cl)c2=O)n[nH]c1=O")
0.86
>>> endpointresult("Cc1cc(-c2cccc(C#N)c2)ccc1Oc1c(C(F)(F)F)ccn(Cc2n[nH]c(=O)n2C)c1=O")
0.67
>>> endpointresult("COc1cc(-c2ccc(C#N)cc2)ccc1Oc1c(C(F)(F)F)ccn(Cc2n[nH]c(=O)n2C)c1=O")
1.39
>>> endpointresult("Cn1c(Cn2ccc(C(F)(F)F)c(Oc3ccc(-c4ccc(F)c(C#N)c4)cc3F)c2=O)n[nH]c1=O")
0.85
>>> endpointresult("Cn1c(Cn2ccc(C(F)(F)F)c(Oc3cc(C#N)cc(-c4cccc(C#N)c4)c3)c2=O)n[nH]c1=O")
-0.68
>>> endpointresult("Cc1cc(Oc2c(C(F)(F)F)ccn(Cc3n[nH]c(=O)n3C)c2=O)ccc1-c1cccc(C#N)c1")
0.18
>>> endpointresult("COc1cc(-c2ccc(F)c(C#N)c2)ccc1Oc1c(C(F)(F)F)ccn(Cc2n[nH]c(=O)n2C)c1=O")
1.63
>>> endpointresult("Cn1c(Cn2ccc(C(F)(F)F)c(Oc3ccc(-c4ccc(C#N)cc4)cc3F)c2=O)n[nH]c1=O")
0.80
